Property: IC50; scope: individual molecules
# Assay target: human dopamine D2 receptor (Homo sapiens)
# Construct: host or cells: CHO-K1 (membranes)
# Sequence (P14416 whole entry): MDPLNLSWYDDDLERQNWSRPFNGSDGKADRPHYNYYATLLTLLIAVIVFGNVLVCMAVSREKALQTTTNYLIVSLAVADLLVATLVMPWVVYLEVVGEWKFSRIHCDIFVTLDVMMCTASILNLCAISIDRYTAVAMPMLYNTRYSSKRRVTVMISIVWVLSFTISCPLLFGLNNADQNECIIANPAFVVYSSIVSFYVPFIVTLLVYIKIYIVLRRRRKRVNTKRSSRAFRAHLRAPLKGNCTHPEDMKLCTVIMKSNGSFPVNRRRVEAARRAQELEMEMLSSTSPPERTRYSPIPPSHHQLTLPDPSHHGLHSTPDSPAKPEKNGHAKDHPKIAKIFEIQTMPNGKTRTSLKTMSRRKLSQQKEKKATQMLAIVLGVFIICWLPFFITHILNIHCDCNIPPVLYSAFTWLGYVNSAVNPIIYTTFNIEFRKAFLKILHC
# Experiment summary: Antagonistic activity against dopamine D2 receptor, [35S]GTPγS binding, CHO-K1 membranes
# Assay type: biochemical
# Settings: inhibition of dopamine-induced [35S]GTPγS binding; read-out: IC50 value D2
# Procedure: Assays were performed at Eurofins Discovery (MO, USA). […] After 20 minute incubation with 0.7 mM acetylthiocholine iodide and 0.5 mM 5,5-dithiobis-2-nitrobenzoic acid, the spectrophotometric absorbance was read at 405 nm (Catalog No. 104010). […] Inhibition on increase of [^35S]GTPS binding response induced by dopamine (10, 0.03 mM) or 3 nM human NPY was assessed as receptor antagonist activities of test compounds (Catalog No. 310200, 310400, 332520). […]

Previously resolved entries follow.
CCCCC/C=C/C(=O)CCc1ccc(O)c(OC)c1 :: > 100 µM
O=C(/C=C/c1ccc(O)c(O)c1)O[C@H](Cc1ccc(O)c(O)c1)C(=O)O :: > 100 µM

# input molecule: C=CCc1ccc(O)c(-c2ccc(O)c(CC=C)c2)c1 ; wanted: its IC50 36.2 µM

# input molecule: CCCCCCCCC[C@H](O)CC(=O)CCc1ccc(O)c(OC)c1 ; wanted: its IC50 > 100 µM

# input molecule: CCCCCCC/C=C/C(=O)CCc1ccc(O)c(OC)c1 ; wanted: its IC50 7.22 µM
